Taken from the supplement of paper PMC13380429.

Kindly supply the reported inhibition of SARS-CoV-2 cytopathic effect values for the records listed here.
Test system: Vero E6 infected with SARS-CoV-2
experiment.summary: inhibition of SARS-CoV-2 cytopathic effect; higher = more antiviral protection, active = above 15
run.parameters: 10000 nM; 48 h
One number for each entry, in %.

Field: inhibition of SARS-CoV-2 cytopathic effect. Fill in for each record below.
1. C[C@]12CC[C@H](O)C[C@H]1CC[C@@H]1[C@@H]2CC[C@]2(C)[C@@](O)(c3ccoc3)CC[C@]12O
2. Nc1ncnc2c1ncn2[C@@H]1O[C@H](COP(=O)(O)O)[C@@H](O)[C@H]1O [adenosine-phosphate]
3. CCCCN1CCC(CNC(=O)c2c3n(c4ccccc24)CCCO3)CC1
4. Cc1n[nH]c(C)c1Cc1sc2c(c1C(=O)N1C[C@H](O)CO1)c(=O)n(C)c(=O)n2CC(C)C
5. N=C(N)NCCC[C@@H](NC(=O)[C@@H]1CCCN1C(=O)[C@@H]1CSSCCC(=O)N[C@@H](Cc2ccc(O)cc2)C(=O)N[C@@H](Cc2ccccc2)C(=O)N[C@@H](CCC(N)=O)C(=O)N[C@@H](CC(N)=O)C(=O)N1)C(=O)NCC(N)=O [desmopressin-acetate]

[-1.77, -12.6, 1.25, 1.69, 0.02]

---

Test system: Vero E6 infected with SARS-CoV-2
experiment.summary: SARS-CoV-2 infection rate relative to infected DMSO; higher = more infection, active = 60 or less
run.parameters: 24 h
measured.property: SARS-CoV-2 infection rate (%)
Give bare numbers, in %.

These recorded examples may help you get a feel for the data.
>>> df
                                   compound  units  assay_value
0  C[C@H](c1ccc(F)cc1CCCC(=O)O)N(c1cc(F)ccc1F)S(=O)(=O)c1ccc(Cl)cc1 (10 µM)      %          112
1  Nc1ccc(C(=O)O)c(O)c1 [aminosalicylate] (10 µM)      %          106
2      Cc1ccc(C(C)C)c(O)c1 [thymol] (10 µM)      %          112

The following compounds each have a reported value; give each one's SARS-CoV-2 infection rate.
1. O=C(NCCCCCCNC(=O)ON=C1CCCCC1)ON=C1CCCCC1 (10 µM)
2. COc1ccc(-c2ccc(=N)n(CCCC(=O)O)n2)cc1 [gabazine] (10 µM)

104
103

---

System: Vero E6 infected with SARS-CoV-2
experiment.summary: inhibition of SARS-CoV-2 cytopathic effect; higher = more antiviral protection, active = above 15
run.parameters: 833.33 nM; 48 h
measured.property: inhibition of SARS-CoV-2 cytopathic effect (%)
Give bare numbers, in %.

Solved entries:
>>> df
                                   molecule  assay_value
0     C=C1CC/C=C(\C)CC[C@@H]2[C@@H]1CC2(C)C         1.24
1  CC(C)[C@H]1C(=O)N[C@@H](CCCNC(=N)N)C(=O)NCC(=O)N[C@@H](CC(=O)O)C(=O)N[C@H](Cc2ccccc2)C(=O)N1C [cilengitide]        -11.1
2                    NC(=O)NO [hydroxyurea]         0.46

Continue with the next molecule.
Please report the recorded inhibition of SARS-CoV-2 cytopathic effect for "COc1cc(Nc2ncc3c(n2)-c2ccc(Cl)cc2C(c2c(F)cccc2OC)=NC3)ccc1C(=O)O" . 0.49

---

System: Vero E6 infected with SARS-CoV-2
experiment.summary: morphology score (similarity to uninfected cells); higher = more like uninfected cells
run.parameters: 24 h
Assign class by morphology score: not lower than 0.06 means label 1; lower than 0.06 means label 0.

>>> df
                                   compound  label_class
0  COc1cc2c(NC3CCN(C(C)C)CC3)nc(N3CCC(F)(F)CC3)nc2cc1OCCCN1CCCC1 (10 µM)      label 1
1  O=C(O)c1cc(N2N=C(C(F)(F)F)/C(=C/c3ccc(-c4ccccc4)o3)C2=O)ccc1Cl (10 µM)      label 1
2  COC(=O)C1=C(C)NC(C)=C(C(=O)OCCCN2CCC(c3ccccc3)(c3ccccc3)CC2)[C@@H]1c1cccc([N+](=O)[O-])c1 [dexniguldipine] (0.833333 µM)      label 1
3  Cc1cc(OI)c(C(C)C)cc1-c1cc(C(C)C)c(OI)cc1C [thymol-iodide] (10 µM)      label 0
4  CCC(=O)NC[C@H](Cc1ccc(OCCc2nc(-c3ccccc3)oc2C)cc1)N/C(C)=C\C(=O)c1ccc(C(F)(F)F)cc1 (10 µM)      label 0

Could you now consider this next compound?
Is reported morphology score greater than or equal to 0.06 here: CN1CCCN=C1COC(=O)C(O)(c1ccccc1)C1CCCCC1 (configuration not stated) [oxyphencyclimine] (10 µM) label 0

---

Tested on: Vero E6 infected with SARS-CoV-2
experiment.summary: inhibition of SARS-CoV-2 cytopathic effect; higher = more antiviral protection, active = above 15
run.parameters: 8.33 nM; 48 h
Could you please report measured inhibition of SARS-CoV-2 cytopathic effect for the items listed next?
Numbers only, in %.

>>> df
                                   molecule  assay_value
0  O=C(O)COc1ccc(OCCNC[C@H](O)COc2ccccc2)cc1        -0.47

Batch request: inhibition of SARS-CoV-2 cytopathic effect for each of the following molecules.
1. CC(C)Oc1ccc(Cc2ccc(NC3=NCCN3)cc2)cc1
2. CC(=O)NCCc1c(Cc2ccccc2)[nH]c2ccccc12 [luzindole]
3. CC(=O)NC1N=C(c2ccccc2)c2ccccc2NC1=O (stereo not given)
4. N=C(N)SCCc1c[nH]cn1 [imetit]
5. NC(=O)c1[nH]cnc1O
6. O=S(=O)(N[C@H]1CC[C@@](c2cc(F)ccc2F)(S(=O)(=O)c2ccc(Cl)cc2)CC1)C(F)(F)F
7. COc1ccc(CCN)cc1OC [homoveratrylamine]
8. Cc1cc(O)cc2c1O[C@](C)(CCC[C@H](C)CCC[C@H](C)CCCC(C)C)CC2 [D-delta-tocopherol]

[0.26, 4.35, 1.87, -0.44, 1.77, 4.08, 7.09, 0.99]

Find the recorded inhibition of SARS-CoV-2 cytopathic effect belonging to COc1cc2c(Oc3ccc(NC(=O)C4(C(=O)Nc5ccc(F)cc5)CC4)cc3F)ccnc2cc1OCCCN1CCOCC1 [foretinib] and report it. -1.17

---

Tested on: Vero E6 infected with SARS-CoV-2
experiment.summary: inhibition of SARS-CoV-2 cytopathic effect; higher = more antiviral protection, active = above 15
run.parameters: 100 nM; 48 h
measured.property: inhibition of SARS-CoV-2 cytopathic effect (%)
Give bare numbers, in %.

Consider the reported inhibition of SARS-CoV-2 cytopathic effect for these compounds:
>>> print(df.to_string())
                                   compound                      study_target  assay_value
0  O=C(N[C@H](CO)[C@H](O)c1ccc([N+](=O)[O-])cc1)C(Cl)Cl  Vero E6 infected with SARS-CoV-2        -1.23
1  N[C@@H](CSC(c1ccccc1)(c1ccccc1)c1ccccc1)C(=O)O  Vero E6 infected with SARS-CoV-2        -2.17
2                       CCOC(=O)c1ccc(O)cc1  Vero E6 infected with SARS-CoV-2         -1.2
3  CN(C)C(=S)SC(=S)N(C)C [tetramethylthiuram-monosulfide]  Vero E6 infected with SARS-CoV-2        -7.33
4  Cc1cccc(C)c1-n1c(=O)c2cnc(Nc3ccc(N4CCN(C)CC4)cc3)nc2n2c3ccccc3nc12  Vero E6 infected with SARS-CoV-2        -2.31
5             COc1cc2ncc(-c3ccccc3)nc2cc1OC  Vero E6 infected with SARS-CoV-2         0.84
6  CC(C)NCC(O)c1ccccc1Cl (stereo not given)  Vero E6 infected with SARS-CoV-2         0.74
7   NC(=O)OCC(COC(N)=O)c1ccccc1 [felbamate]  Vero E6 infected with SARS-CoV-2         -0.7
8       CCCCc1ccc(NS(=O)(=O)c2ccc(F)cc2)cc1  Vero E6 infected with SARS-CoV-2        -1.58

Consider the record given below.
// returns reported inhibition of SARS-CoV-2 cytopathic effect for input "CN(C)[C@@H](CCOc1cccc2ccccc12)c1ccccc1" 1.54

---

For each entry below, report its inhibition of SARS-CoV-2 cytopathic effect value.
Test system: Vero E6 infected with SARS-CoV-2
experiment.summary: inhibition of SARS-CoV-2 cytopathic effect; higher = more antiviral protection, active = above 15
run.parameters: 833.33 nM; 48 h

compound	assay.value
O=C(O)CSCC(=O)NC1CCSC1=O (configuration not stated) [erdosteine]	-2.61% (inactive)
Nc1ncnc2c1c(-c1ccc(Oc3ccccc3)cc1)nn2C1CCCC1	-0.21% (inactive)
OC[C@H]1O[C@@H](OCCc2ccc(O)cc2)[C@H](O)[C@@H](O)[C@@H]1O [salidroside]	0.45% (inactive)

Give one value of inhibition of SARS-CoV-2 cytopathic effect per listed compound.
1. CCN(CCCOc1ccc2c(Nc3cc(CC(=O)Nc4cccc(F)c4)[nH]n3)ncnc2c1)CCOP(=O)(O)O [barasertib]
2. COC[C@@H](c1ccc(C(F)(F)F)cc1)N1CCN(C2(C)CCN(C(=O)c3c(C)ncnc3C)CC2)C[C@@H]1C [vicriviroc]
3. CCN1CCN(c2ccc(Nc3cc(N(C)C(=O)Nc4c(Cl)c(OC)cc(OC)c4Cl)ncn3)cc2)CC1

1. -2.03% (inactive)
2. 0.02% (inactive)
3. -2.75% (inactive)

I'm hoping you can list inhibition of SARS-CoV-2 cytopathic effect for every compound here, please.
1. CC(C)NCC(O)COc1cccc2[nH]c3ccccc3c12 (configuration not stated) [carazolol]
2. NS(=O)(=O)c1cc2c(cc1Cl)NC(C(Cl)Cl)NS2(=O)=O (configuration not stated) [trichlormethiazide]
3. CCC1(C)CC(=O)NC1=O (configuration not stated) [ethosuximide]

1. 0% (inactive)
2. -3.29% (inactive)
3. 1.39% (inactive)

Provide the reported inhibition of SARS-CoV-2 cytopathic effect of each entry below, same order.
1. Cc1cc(O)cc2c1O[C@](C)(CCC[C@H](C)CCC[C@H](C)CCCC(C)C)CC2 [D-delta-tocopherol]
2. Cc1oc(-c2ccccc2)nc1CCOc1ccc(CC2SC(=O)NC2=O)c2sccc12 (configuration not stated) [edaglitazone]

1: 0.84% (inactive); 2: 1.32% (inactive)

Can you give me inhibition of SARS-CoV-2 cytopathic effect for all of these, one by one?
1. Cn1c(=O)c(F)c(Nc2ccc(I)cc2F)c2c(=O)n(C[C@@H](O)CO)cnc21
2. Oc1ccc(OC2CCCCO2)cc1 (configuration not stated) [deoxyarbutin]
3. CC(N)Cc1c[nH]c2ccc(OCc3cccs3)cc12 (configuration not stated)
4. O=c1ccn([C@@H]2O[C@H](CO)[C@@H](O)[C@H]2O)c(=O)[nH]1 [uridine]
5. Cc1onc(O)c1C[C@@H](N)C(=O)O (racemic)
6. Nc1cccc2c1C(=O)N(C1CCC(=O)NC1=O)C2=O (configuration not stated) [pomalidomide]

-11.6% (inactive)
0.9% (inactive)
-1.65% (inactive)
-1.16% (inactive)
2.51% (inactive)
0.83% (inactive)
